Protocol: Oral bioavailability in rat at 1 mg/kg
Format: ADME, organism-based
Protocol Conditions: in vivo
Endpoint Label: bioavailability
Your reply should be a number followed by the unit it is expressed in.

Q) Requested read-out: bioavailability. Entry: `Cc1cc(C[C@@H](NC(=O)N2CCC3(CC2)OC(=O)Nc2ncccc23)C(=O)N[C@@H](CC2CCNCC2)C(=O)N2CCN(c3ccncc3)CC2)cc2cn[nH]c12`
A) 123%

* * *

Protocol: Stability of the compound in pH 8 solution at 50 degC assessed as loss of purity after 1 week
Assay type: physicochemical
Protocol Conditions: read-out: Drug degradation
Endpoint Label: degraded at 168 h (%)
Please reply with the bare figure in % and do not write the unit itself.

Q) Requested read-out: degraded at 168 h. Entry: `Cc1cc(C[C@@H](NC(=O)N2CCC3(CC2)OC(=O)Nc2ncccc23)C(=O)N[C@@H](CC2CCNCC2)C(=O)N2CCN(c3ccncc3)CC2)cc2cn[nH]c12`
A) 4.5

* * *

Protocol: Tmax in rat at 1 mg/kg, sc
Assay type: ADME, organism-based
Protocol Conditions: in vivo
Endpoint Label: Tmax (min)
Please reply with the bare figure in min and do not write the unit itself.

Q) Requested read-out: Tmax. Entry: `Cc1cc(C[C@@H](NC(=O)N2CCC3(CC2)OC(=O)Nc2ncccc23)C(=O)N[C@@H](CC2CCNCC2)C(=O)N2CCN(c3ccncc3)CC2)cc2cn[nH]c12`
A) 42

* * *

Protocol: Half life in cynomolgus monkey at 0.5 mg/kg, sc
Type: ADME, organism-based, Macaca fascicularis
Protocol Conditions: in vivo
Endpoint Label: half-life (h)
Please reply with the bare figure in h and do not write the unit itself.

Q) Requested read-out: half-life. Entry: Cc1cc(C[C@@H](NC(=O)N2CCC3(CC2)OC(=O)Nc2ncccc23)C(=O)N[C@@H](CC2CCNCC2)C(=O)N2CCN(c3ccncc3)CC2)cc2cn[nH]c12 [HTL-0022562]
A) 3.6

* * *

Protocol: Tmax in cynomolgus monkey at 0.013 mg/kg, sc
Format: ADME, organism-based, Macaca fascicularis
Protocol Conditions: in vivo
Endpoint Label: Tmax (min)
Please reply with the bare figure in min and do not write the unit itself.

Q) Requested read-out: Tmax. Entry: `Cc1cc(C[C@@H](NC(=O)N2CCC3(CC2)OC(=O)Nc2ncccc23)C(=O)N[C@@H](CC2CCNCC2)C(=O)N2CCN(c3ccncc3)CC2)cc2cn[nH]c12`
A) 48

* * *

System Under Test: PXR (NR1I2) (Homo sapiens, UniProt O75469)
Sequence (O75469 whole entry): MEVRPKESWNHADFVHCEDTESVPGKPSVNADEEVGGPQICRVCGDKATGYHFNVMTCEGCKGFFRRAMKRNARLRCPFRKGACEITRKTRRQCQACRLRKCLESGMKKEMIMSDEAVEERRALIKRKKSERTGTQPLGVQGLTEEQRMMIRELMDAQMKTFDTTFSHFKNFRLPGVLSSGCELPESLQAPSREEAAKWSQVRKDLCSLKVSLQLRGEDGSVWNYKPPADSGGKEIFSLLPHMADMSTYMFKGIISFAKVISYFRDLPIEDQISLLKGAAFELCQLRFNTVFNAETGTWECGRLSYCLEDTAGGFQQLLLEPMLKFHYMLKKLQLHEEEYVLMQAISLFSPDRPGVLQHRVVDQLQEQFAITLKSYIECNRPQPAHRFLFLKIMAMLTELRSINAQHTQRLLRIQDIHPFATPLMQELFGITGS
Protocol: Transactivation of PXR (unknown origin) assessed as induction of CYP450 at 3 uM relative to control
Assay type: ADME
Protocol Conditions: read-out: FC
Endpoint Label: fold induction at 3 µM
Simply state the number, no unit and no words.

Q) Requested read-out: fold induction at 3 µM. Entry: Cc1cc(C[C@@H](NC(=O)N2CCC3(CC2)OC(=O)Nc2ncccc23)C(=O)N[C@@H](CC2CCNCC2)C(=O)N2CCN(c3ccncc3)CC2)cc2cn[nH]c12 [HTL-0022562]
A) 2.3

* * *

Protocol: Half life in dog at 0.5 mg/kg, iv
Assay type: ADME, organism-based, Canis lupus familiaris
Protocol Conditions: in vivo
Endpoint Label: half-life
Your reply should be a number followed by the unit it is expressed in.

Q) Requested read-out: half-life. Entry: `Cc1cc(C[C@@H](NC(=O)N2CCC3(CC2)OC(=O)Nc2ncccc23)C(=O)N[C@@H](CC2CCNCC2)C(=O)N2CCN(c3ccncc3)CC2)cc2cn[nH]c12`
A) 1.2 h
